Reported Ki values, Hrh3 protein (Rattus norvegicus, UniProt Q5PPG3).
# number only, unit nM dropped from output

For "C[C@H](N)Cc1c[nH]cn1" on Hrh3 protein (Rattus norvegicus, UniProt Q5PPG3), measured Ki was 11

Response field Ki (Hrh3 protein (Rattus norvegicus, UniProt Q5PPG3)) for item NCCc1c[nH]cn1 [[3H]histamine] : 100

Tested system Hrh3 protein (Rattus norvegicus, UniProt Q5PPG3); Ki recorded for "S=C(NC1CCCCC1)N1CCC(c2cnc[nH]2)CC1" was 2.1

----------
This section lists pKi readings for Histamine H3 receptor (Cavia porcellus, UniProt Q9JI35).
Hey, just a heads up that pKi is the negative log base 10 of the concentration in molar.

Note to self: pKi recorded for "C[C@@H](N)Cc1c[nH]cn1" was 6.09

Looking up c1ncc(CCN2CCCC2)[nH]1 [4-[2-(1-Pyrrolidinyl)ethyl]-imidazole] , I found its pKi recorded as 8.22

response.value for C[C@H](N)Cc1c[nH]cn1 [CAS_75614-93-6] (field: pKi) = 7.28

The compound identified as "S=C(NC1CCCCC1)N1CCC(c2cnc[nH]2)CC1" registered its pKi at 8.70

Form field pKi, entry NCCc1c[nH]cn1 [[3H]histamine] : 7.00
